- MEASURED_TARGET: 20S proteasomes purified from a B-LCL cell line (immunoproteasomes) (Homo sapiens, UniProt P28062+P28065+P40306)
- Construct: 20S proteasomes were purified from a B-LCL cell line; endogenous in cells; purified after Groettrup et al. 1995
- ASSAY_NOTES: In vitro proteasome mediated cleavage analysis
- Type: biochemical
- Parameters: key: intact epitope found in digestion fragments: (+), present; (-), not present
- CONDITION: after 1 h digestion
Where a SMILES comes first, the peptide text is derived from it.
VALUE_TYPE: Intact Fragment: intact epitope found in digestion fragments

Known results for compounds:
COMPOUND	REPORTED_MEASUREMENT
CC(C)C[C@H](NC(=O)[C@H](C)NC(=O)[C@H](CCC(N)=O)NC(=O)[C@H](CC(C)C)NC(=O)[C@H](CS)NC(=O)[C@H](CCC(N)=O)NC(=O)[C@H](CC(C)C)NC(=O)[C@@H](N)CO)C(=O)N[C@@H](Cc1ccc(O)cc1)C(=O)N[C@H](C(=O)O)C(C)C	-
CC(C)C[C@H](NC(=O)[C@H](Cc1ccc(O)cc1)NC(=O)[C@@H]1CCCN1C(=O)[C@H](CO)NC(=O)[C@H](Cc1ccccc1)NC(=O)[C@H](CCCCN)NC(=O)[C@H](C)NC(=O)[C@H](CC(C)C)NC(=O)[C@@H](N)[C@@H](C)O)C(=O)O	+
CC[C@H](C)[C@H](NC(=O)[C@H](CC(C)C)NC(=O)[C@@H](N)Cc1ccc(O)cc1)C(=O)N[C@@H](CCC(=O)O)C(=O)N[C@@H](CCCCN)C(=O)N[C@H](C(=O)N[C@@H](CCCCN)C(=O)N[C@@H](CCCNC(=N)N)C(=O)N[C@@H](CCCCN)C(=O)O)C(C)C	-
CC(C)C[C@H](NC(=O)[C@@H](NC(=O)[C@H](Cc1c[nH]cn1)NC(=O)[C@@H](NC(=O)[C@H](CC(C)C)NC(=O)[C@H](CC(N)=O)NC(=O)[C@H](CO)NC(=O)[C@H](CC(C)C)NC(=O)CN)[C@@H](C)O)C(C)C)C(=O)O	-
CC[C@H](C)[C@H](NC(=O)[C@H](CO)NC(=O)[C@@H](NC(=O)[C@H](CO)NC(=O)[C@H](CC(N)=O)NC(=O)CNC(=O)[C@H](Cc1ccc(O)cc1)NC(=O)[C@H](Cc1ccccc1)NC(=O)[C@@H](N)CO)[C@@H](C)CC)C(=O)O	+
CC[C@H](C)[C@H](NC(=O)[C@H](CCSC)NC(=O)[C@H](CCC(N)=O)NC(=O)CNC(=O)[C@H](CC(C)C)NC(=O)[C@H](Cc1ccc(O)cc1)NC(=O)[C@@H]1CCCN1)C(=O)N[C@@H](CC(N)=O)C(=O)N[C@@H](CC(C)C)C(=O)O	+

[in] Please list Intact Fragment: intact epitope found in digestion fragments recorded for the compound CC[C@H](C)[C@H](NC(=O)[C@H](C)NC(=O)[C@H](CC(C)C)NC(=O)[C@H](C)NC(=O)[C@H](CCC(=O)O)NC(=O)[C@H](CC(=O)O)NC(=O)[C@H](CCCCN)NC(=O)[C@H](CC(C)C)NC(=O)[C@@H](N)CC(C)C)C(=O)O
[out] +

[in] Give reported Intact Fragment: intact epitope found in digestion fragments value for CC(C)C[C@H](NC(=O)[C@H](C)NC(=O)[C@H](CCC(N)=O)NC(=O)[C@H](CC(C)C)NC(=O)[C@H](CS)NC(=O)[C@H](CCC(N)=O)NC(=O)[C@H](CC(C)C)NC(=O)[C@@H](N)CO)C(=O)N[C@@H](Cc1ccc(O)cc1)C(=O)O
[out] -

[in] Give reported Intact Fragment: intact epitope found in digestion fragments value for CSCC[C@H](NC(=O)[C@H](CO)NC(=O)[C@@H]1CCCN1C(=O)[C@H](CCCNC(=N)N)NC(=O)CNC(=O)[C@H](CC(C)C)NC(=O)[C@H](CCC(=O)O)NC(=O)[C@H](CS)NC(=O)[C@H](CC(C)C)NC(=O)[C@@H](N)CC(C)C)C(=O)O
[out] -

[in] Indicate its recorded Intact Fragment: intact epitope found in digestion fragments; the compound in question is CC[C@H](C)[C@H](NC(=O)[C@H](Cc1ccc(O)cc1)NC(=O)[C@@H](N)CCCNC(=N)N)C(=O)N[C@@H](CO)C(=O)N[C@@H](CCSC)C(=O)N[C@@H](CO)C(=O)N[C@H](C(=O)N[C@@H](Cc1c[nH]c2ccccc12)C(=O)N[C@H](C(=O)N[C@@H](CO)C(=O)O)[C@@H](C)O)C(C)C
[out] -

[in] Please indicate Intact Fragment: intact epitope found in digestion fragments recorded for CC(C)C[C@H](NC(=O)[C@H](CCCNC(=N)N)NC(=O)[C@H](CC(C)C)NC(=O)[C@@H](NC(=O)[C@@H](N)CC(N)=O)C(C)C)C(=O)N[C@@H](CS)C(=O)N[C@@H](CS)C(=O)N[C@@H](CCCCN)C(=O)N[C@@H](CCCCN)C(=O)O
[out] -

[in] Assign Intact Fragment: intact epitope found in digestion fragments to the following record: CC(C)C[C@H](NC(=O)[C@H](Cc1ccccc1)NC(=O)[C@H](Cc1ccccc1)NC(=O)[C@H](CC(C)C)NC(=O)[C@H](CO)NC(=O)[C@H](CC(=O)O)NC(=O)[C@@H](NC(=O)[C@H](Cc1ccc(O)cc1)NC(=O)[C@H](CC(C)C)NC(=O)[C@H](C)N)C(C)C)C(=O)O
[out] +

[in] State its Intact Fragment: intact epitope found in digestion fragments: CC[C@H](C)[C@H](N)C(=O)N[C@@H](Cc1ccccc1)C(=O)N[C@@H](C)C(=O)N[C@@H](CCSC)C(=O)N1CCC[C@H]1C(=O)N[C@@H](CCSC)C(=O)N[C@@H](CCC(N)=O)C(=O)N[C@@H](CC(=O)O)C(=O)N[C@H](C(=O)O)[C@@H](C)CC
[out] -

[in] Check the records and state Intact Fragment: intact epitope found in digestion fragments for CC[C@H](C)[C@H](NC(=O)[C@@H]1CCCN1C(=O)[C@@H](N)CCC(=O)O)C(=O)N[C@@H](CC(C)C)C(=O)N[C@@H](CS)C(=O)N1CCC[C@H]1C(=O)N[C@@H](CS)C(=O)N[C@@H](Cc1ccccc1)C(=O)N[C@@H](CCSC)C(=O)O (H-EPILCPCFM-OH)
[out] -

[in] Consider the compound CC(C)C[C@H](NC(=O)[C@H](CCC(=O)O)NC(=O)[C@H](CCCNC(=N)N)NC(=O)[C@H](CC(C)C)NC(=O)[C@H](CCCNC(=N)N)NC(=O)[C@H](C)NC(=O)[C@H](Cc1c[nH]cn1)NC(=O)[C@H](CC(C)C)NC(=O)[C@@H](N)Cc1ccc(O)cc1)C(=O)O . State its measured Intact Fragment: intact epitope found in digestion fragments.
[out] +

Cited source: patent US10450356B2
